Entries and their Inhibition
Species on record: Cavia porcellus
assay-details: Inhibitory activity of the Compound was tested against LTD4 induced contraction of guinea pig trachea at 2*10e-7 M concentration.
Type: functional
Numeric only. Scale: %

For reference, reported Inhibition for CCCC(=O)c1c(O)cc(O)c(C(=O)CCC)c1O stands at 12.5

For reference, reported Inhibition for CC(C)C(=O)c1c(O)cc(O)c(C(=O)C(C)C)c1O stands at 28.9

* * *

Species: Cavia porcellus
assay-details: Inhibitory activity of the Compound was tested against U-46619 induced contraction of guinea pig trachea at 2*10e-6 M concentration.
Type: functional
attribute-measured: Inhibition (%)
Numeric only. Scale: %

For reference, reported Inhibition for CC(C)C(=O)C1=C(O)C(C)(C)C(O)=C(C(=O)C(C)C)C1=O stands at 61.2

For reference, reported Inhibition for CC(C)CC(=O)c1c(O)cc(O)c(C(=O)CC(C)C)c1O stands at 42

For reference, reported Inhibition for CCCC(=O)c1c(O)cc(O)c(C(=O)CCC)c1O stands at 57

For reference, reported Inhibition for CCC(C)C(=O)c1c(O)cc(O)c(C(=O)C(C)CC)c1O (centres undefined) stands at 34.7

* * *

Species: Cavia porcellus
assay-details: Inhibitory activity of the Compound was tested against U-46619 induced contraction of guinea pig trachea at 3*10e-6 M concentration.
Assay type: functional
Classification field: enter yes for Inhibition values not below 30%, no for values below it.

Some entries whose results are on file:
Is the recorded value of Inhibition equal to or greater than 30% for this compound? CCCC1(CCC)C(=O)C(C(=O)C(C)C)=C(O)C(C(=O)C(C)C)=C1O
no

Is the recorded value of Inhibition equal to or greater than 30% for this compound? CCCCCC1(CCCCC)C(=O)C(C(=O)C(C)C)=C(O)C(C(=O)C(C)C)=C1O
no

Is the recorded value of Inhibition equal to or greater than 30% for this compound? CC(C)CC(=O)c1c(O)cc(O)cc1O
no

Is the recorded value of Inhibition equal to or greater than 30% for this compound? CCC(C)C(=O)c1c(O)cc(O)cc1O (configuration not stated)
no

New cases:
Is the recorded value of Inhibition equal to or greater than 30% for this compound? CC(C)C(=O)c1c(O)cc(O)cc1O [PHLOROISOBUTYROPHENONE]
no

Is the recorded value of Inhibition equal to or greater than 30% for this compound? CC(C)C(=O)C1=C(O)C(C)(C)C(O)=C(C(=O)C(C)C)C1=O
yes

Is the recorded value of Inhibition equal to or greater than 30% for this compound? CCCCC1(CCCC)C(=O)C(C(=O)C(C)C)=C(O)C(C(=O)C(C)C)=C1O
yes

* * *

Species on record: Cavia porcellus
assay-details: Inhibitory activity of the Compound was tested against LTD4 induced contraction of guinea pig trachea at 2*10e-7 M concentration.
Format: functional
attribute-measured: Inhibition (%)
Numeric only. Scale: %

These solved cases illustrate the format of a correct answer.
For reference, reported Inhibition for CCC(=O)c1c(O)cc(O)c(C(=O)CC)c1O stands at 30.8

For reference, reported Inhibition for CC(C)CC(=O)c1c(O)cc(O)c(C(=O)CC(C)C)c1O stands at 29.9

Here is the next item to consider.
For reference, reported Inhibition for CC(C)C(=O)C1=C(O)C(C)(C)C(O)=C(C(=O)C(C)C)C1=O stands at 36.8
